assay: Stability of the compound assessed as half life; type: physicochemical
REPORTED METRIC: half-life (min)
# value in min; strip the unit string

State the recorded half-life for this entry: Oc1ccc(/C=C/c2cc(O)cc(O)c2)cc1 [RESVERATROL] 8
